procedure-details: Equilibrium solubility in aqueous buffer
Type: physicochemical
condition-notes: aqueous buffer (NaOAc/AcOH), thermodynamic from solid, NaOAc/AcOH buffer (100 mM, pH 5.0), shaken at rt for 24 h, HPLC UV
measure: solubility at 24 h

Prompt line: May I ask what solubility at 24 h has been recorded for COc1cc(/C=C/C(=O)CC(=O)/C=C/c2ccc(O)c(OC)c2)ccc1O [Curcumin, reference compound] ?
Response line: < 1 µg/mL

* * *

The reader will find reported IC50 values listed item by item below.
System: A549 cells
procedure-details: Inhibition of cell growth in tumor cells (MTT assay)
Assay type: cell-based
condition-notes: Homo sapiens, 72 h compound exposure

Prompt line: For the compound shown here, `COc1ccc(/C=C/C(=O)CC(=O)/C=C/c2ccc(OC(=O)N3CCN(C)CC3)c(OC)c2)cc1OC` , give the reported IC50.
Response line: 4.3 µM

* * *

System: A549 cells
procedure-details: Inhibition of cell growth in tumor cells (MTT assay)
Type: cell-based
condition-notes: Homo sapiens, 72 h compound exposure
measure: pIC50
Hey, just a heads up that pIC50 is the negative log base 10 of the concentration in molar.

Solved cases (6 shown):
structure-smiles: COc1cc(/C=C/C(=O)CC(=O)/C=C/c2ccc(OC(=O)N(C)C)c(OC)c2)ccc1OCCO
pIC50: 5.04
//
structure-smiles: COc1cc(/C=C/C(=O)CC(=O)/C=C/c2ccc(OC(=O)N3CCCCC3)c(OC)c2)ccc1OCCO
pIC50: 4.96
//
structure-smiles: COc1cc(/C=C/C(=O)CC(=O)/C=C/c2ccc(OC(=O)N(C)C)c(OC)c2)ccc1O
pIC50: 5.64
//
structure-smiles: COc1cc(/C=C/C(=O)CC(=O)/C=C/c2ccc(OC(=O)N3CCNCC3)c(OC)c2)ccc1O
pIC50: 5.04
//
structure-smiles: COc1cc(/C=C/C(=O)CC(=O)/C=C/c2ccc(OC(=O)N3CCOCC3)c(OC)c2)ccc1O
pIC50: 5.14
//
structure-smiles: COc1cc(/C=C/C(=O)CC(=O)/C=C/c2ccc(OC(=O)N3CCN(C)CC3)c(OC)c2)ccc1O
pIC50: 5.42

Prompt line: Which pIC50 is listed for `COc1ccc(/C=C/C(=O)CC(=O)/C=C/c2ccc(OC(=O)N(C)C)c(OC)c2)cc1OC` ?
Response line: 4.97

Prompt line: Return reported pIC50; argument: `COc1ccc(/C=C/C(=O)CC(=O)/C=C/c2ccc(OC(=O)N3CCOCC3)c(OC)c2)cc1OC`
Response line: 5.34

Prompt line: # pIC50 lookup, item `COc1cc(/C=C/C(=O)CC(=O)/C=C/c2ccc(OC(=O)N3CCCCC3)c(OC)c2)ccc1O`
Response line: 5.10
